System: Leishmania amazonensis promastigotes expressing beta-lactamase
Assay: microbe, parasite or virus in culture
Format: cell-based
Conditions: Leishmania amazonensis, read-out: IC50 L. amaz.
Method: Leishmania amazonensis promastigotes expressing beta-lactamase (Buckner et al., Am. J. Trop. Med. Hyg. 72 (2005) 600-605. doi:72/5/600 [pii]) were cultured in RPMI supplemented with 10% fetal calf serum and 1% pen-strep-glut solution (Sigma) at 27° C. Stationary phase promastigotes were adjusted in fresh media, treated with compounds, and incubated at 37° C. […] Luminescence readings were taken with a spectrophotometer and used to calculate inhibition.
pIC50: −log10 of the molar value.
attribute measured: pIC50

Q: Name the recorded pIC50 of the compound listed here: "Cc1ccccc1/C=C1\Oc2ccccc2C1=O"
A: > 6.00

Q: Please list pIC50 recorded for the compound "CC(=O)N1/C(=C\c2ccc(CO)o2)C(=O)c2ccccc21"
A: > 6.00

Q: Return reported pIC50. Input compound: "O=C1/C(=C/c2ccco2)Oc2ccccc21"
A: > 6.00

Q: Complete the entry with pIC50 for "O=C1/C(=C/c2ccc(CO)o2)Sc2ccccc21"
A: > 6.00

---

Tested on: Leishmania amazonensis promastigotes expressing beta-lactamase
Assay: microbe, parasite or virus in culture
Format: cell-based
Details: Leishmania amazonensis, read-out: IC50 L. amaz.
attribute measured: IC50

Q: Report measured IC50; entry is "O=C1/C(=C/c2ccccc2)Nc2ccccc21"
A: < 1 µM

Q: Determine its reported IC50: "N=C1/C(=C/c2ccccn2)Oc2ccc(F)cc21"
A: < 1 µM

Q: Item "O=C1/C(=C/c2ccc[nH]2)Oc2ccccc21" : provide IC50
A: < 1 µM
